- METHOD_SUMMARY: Sulforhodamine B (SRB) cytotoxicity assay
- RUN_PARAMETERS: human, A172 glioblastoma cells
List of viability at 72 h, 0.488 µM values.
Numeric answer only, unit % assumed.

Challenge: Consider the compound "C[C@]1(c2nc3c(C(N)=O)cccc3[nH]2)CCCN1" and give its measured viability at 72 h, 0.488 µM.
Response given: 104

Moving on to the next compound.
Challenge: What value of viability at 72 h, 0.488 µM has been reported for the following compound? "Cn1c(=S)c2[nH]c(SCCN3CCOCC3)nc2n(C)c1=O"
Response given: 98.3

* * *

- METHOD_SUMMARY: Sulforhodamine B (SRB) cytotoxicity assay
- RUN_PARAMETERS: human, PC3 cells, Viability, without IR, log [concentration] μM 0.796
VALUE_KIND: viability at 72 h, 6.25 µM (%)
The response must be a number in % with no trailing unit.

Challenge: Any idea what viability at 72 h, 6.25 µM was measured for "COc1cccc2c1C(=O)c1c(O)c3c(c(O)c1C2=O)C[C@@](O)(C(=O)CO)C[C@@H]3O[C@H]1C[C@H](N)[C@H](O)[C@H](C)O1" ?
Response given: 10.1

* * *

- METHOD_SUMMARY: Sulforhodamine B (SRB) cytotoxicity assay
- RUN_PARAMETERS: human, A172 glioblastoma cells
VALUE_KIND: viability at 72 h, 31.3 µM (%)
Answer in %, number only, no unit symbol.

Challenge: Please report the recorded viability at 72 h, 31.3 µM for "C[C@]1(c2nc3c(C(N)=O)cccc3[nH]2)CCCN1" .
Response given: 94.1

New cases:
Challenge: Which viability at 72 h, 31.3 µM reading was recorded for the compound "Cn1c(=S)c2[nH]c(SCCN3CCOCC3)nc2n(C)c1=O" ?
Response given: 78.7

* * *

- METHOD_SUMMARY: Sulforhodamine B (SRB) cytotoxicity assay
- Format: cell-based, human
- RUN_PARAMETERS: human, MDA-MB-231 cells with stable PARG shRNA knockdown (PARG-KD); log concentration μM 1.39794; 72 h
VALUE_KIND: viability at 72 h, 25 µM (%)
Give just the numeric value; % need not be written.

Challenge: Need viability at 72 h, 25 µM of "Cn1c(=S)c2[nH]c(SCCN3CCOCC3)nc2n(C)c1=O" , thanks.
Response given: 80.4

* * *

- METHOD_SUMMARY: Sulforhodamine B (SRB) cytotoxicity assay
- RUN_PARAMETERS: human, PC3 cells, Viability, +IR 7.0 Gy, log [concentration] μM 2.69897
VALUE_KIND: viability at 72 h, 500 µM (%)
Report only the number, with the unit % understood.

Challenge: Please give the measured viability at 72 h, 500 µM for this compound: O=C(c1cc(Cc2n[nH]c(=O)c3ccccc23)ccc1F)N1CCN(C(=O)C2CC2)CC1 [Olaparib, reference compound]
Response given: 11.1

* * *

- METHOD_SUMMARY: Sulforhodamine B (SRB) cytotoxicity assay
- RUN_PARAMETERS: human, PC3 cells, Viability, +IR 7 Gy, log [concentration] μM 1.796
VALUE_KIND: viability at 72 h, 62.5 µM (%)
Answer in %, number only, no unit symbol.

Challenge: What does the data say about its viability at 72 h, 62.5 µM? Entry: Cn1c(=S)c2[nH]c(SCCN3CCOCC3)nc2n(C)c1=O [JA2131]
Response given: 32.5

* * *

- METHOD_SUMMARY: Sulforhodamine B (SRB) cytotoxicity assay
- Type: cell-based, human
- RUN_PARAMETERS: human, MRC-5 cells; log [concentration] μM 0.49
VALUE_KIND: viability at 72 h, 3.09 µM (%)
The reply should be a number in %, with the unit left off.

Challenge: # get_value(readout='viability at 72 h, 3.09 µM', item= "COc1cccc2c1C(=O)c1c(O)c3c(c(O)c1C2=O)C[C@@](O)(C(=O)CO)C[C@@H]3O[C@H]1C[C@H](N)[C@H](O)[C@H](C)O1" )
Response given: 47.4

* * *

Known inhibition at 50 µM of a selection of molecules
- SUBJECT_OF_TEST: Human PARG (Homo sapiens)
- Construct: The human PARG (hPARG) catalytic domain (residues 389–976) was cloned in pET28a (Novagen); His-tag (N); made in house; host or cells: E. coli Rosetta
- Sequence (Q86W56 389-976): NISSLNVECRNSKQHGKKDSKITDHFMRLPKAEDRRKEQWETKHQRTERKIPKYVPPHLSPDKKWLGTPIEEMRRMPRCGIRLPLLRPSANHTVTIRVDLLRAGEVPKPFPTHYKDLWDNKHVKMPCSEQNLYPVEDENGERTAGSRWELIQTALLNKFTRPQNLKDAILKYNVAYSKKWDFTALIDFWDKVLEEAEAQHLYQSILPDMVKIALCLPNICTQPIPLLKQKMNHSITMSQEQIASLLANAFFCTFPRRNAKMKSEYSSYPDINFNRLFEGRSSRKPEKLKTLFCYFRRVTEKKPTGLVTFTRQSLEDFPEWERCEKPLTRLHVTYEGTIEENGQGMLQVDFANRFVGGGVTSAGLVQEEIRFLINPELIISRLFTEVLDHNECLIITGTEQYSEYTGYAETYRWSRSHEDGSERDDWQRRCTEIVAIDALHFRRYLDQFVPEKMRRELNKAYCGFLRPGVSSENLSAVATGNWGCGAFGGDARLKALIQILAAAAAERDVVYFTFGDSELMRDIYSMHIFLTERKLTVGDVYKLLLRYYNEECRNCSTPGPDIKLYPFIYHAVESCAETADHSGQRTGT
- METHOD_SUMMARY: Gel-based PARG activity assay
- Format: biochemical
- RUN_PARAMETERS: [L] 50 uM
Give just the numeric value; % need not be written.

Use the examples below as a reference point.
Challenge: Param readout = inhibition at 50 µM; param system = Human PARG (Homo sapiens); param query = "Cn1c(=S)c2nc(SCCN3CCCC3)[nH]c2n(C)c1=O" ; response: value
Response given: 100

Challenge: Can you look up inhibition at 50 µM on Human PARG (Homo sapiens) for "Cn1c(=O)c2[nH]c(SCCN3CCOCC3)nc2n(C)c1=O" ?
Response given: 67

Challenge: Please tell me: inhibition at 50 µM of "Cn1c(=O)c2[nH]c(SCCN3CCOCC3)nc2n(C)c1=S" , system Human PARG (Homo sapiens)?
Response given: 104

# context switch: different molecule, same inhibition at 50 µM
Challenge: Missing value: inhibition at 50 µM, Human PARG (Homo sapiens), entry "Cn1c(=S)c2[nH]c(SCCN3CCOCC3)nc2n(C)c1=O" . Fill in?
Response given: 94

* * *

- METHOD_SUMMARY: Sulforhodamine B (SRB) cytotoxicity assay
- RUN_PARAMETERS: human, PC3 cells, Viability, without IR, log [concentration] μM 2
VALUE_KIND: viability at 72 h, 100 µM (%)
Numeric only. Scale: %

Challenge: # lookup: viability at 72 h, 100 µM of COc1cccc2c1C(=O)c1c(O)c3c(c(O)c1C2=O)C[C@@](O)(C(=O)CO)C[C@@H]3O[C@H]1C[C@H](N)[C@H](O)[C@H](C)O1 [Doxorubicin]
Response given: 10.6

* * *

- METHOD_SUMMARY: Sulforhodamine B (SRB) cytotoxicity assay
- RUN_PARAMETERS: human, PC3 cells, Viability, +IR 7.0 Gy, log [concentration] μM 1.79588
VALUE_KIND: viability at 72 h, 62.5 µM (%)
Lab book: enter the figure in %, no units written.

Challenge: // query viability at 72 h, 62.5 µM value for entry O=C(c1cc(Cc2n[nH]c(=O)c3ccccc23)ccc1F)N1CCN(C(=O)C2CC2)CC1 [Olaparib, reference compound]
Response given: 52.4

* * *

- METHOD_SUMMARY: Sulforhodamine B (SRB) cytotoxicity assay
- Type: cell-based, human
- RUN_PARAMETERS: human, MRC-5 cells; log [concentration] μM -0.61
// reported viability at 72 h, 0.245 µM per item
Report only the number, with the unit % understood.

Challenge: Which viability at 72 h, 0.245 µM is reported for this compound? "Cn1c(=S)c2[nH]c(SCCN3CCOCC3)nc2n(C)c1=O"
Response given: 100

Now, please, on to the next compound.
Challenge: Bench note: what viability at 72 h, 0.245 µM did "C[C@]1(c2nc3c(C(N)=O)cccc3[nH]2)CCCN1" show?
Response given: 100

* * *

- METHOD_SUMMARY: Sulforhodamine B (SRB) cytotoxicity assay
- RUN_PARAMETERS: human, PC3 cells, Viability, without IR, log [concentration] μM -0.408
VALUE_KIND: viability at 72 h, 0.39 µM (%)
A number alone suffices; assume %.

Challenge: Would you kindly share the measured viability at 72 h, 0.39 µM for "COc1cccc2c1C(=O)c1c(O)c3c(c(O)c1C2=O)C[C@@](O)(C(=O)CO)C[C@@H]3O[C@H]1C[C@H](N)[C@H](O)[C@H](C)O1" ?
Response given: 95

* * *

- METHOD_SUMMARY: Sulforhodamine B (SRB) cytotoxicity assay
- Format: cell-based, human
- RUN_PARAMETERS: human, MDA-MB-231 control cells with stable scramble shRNA, log concentration μM 1.39794
VALUE_KIND: viability at 72 h, 25 µM (%)
Quick note: give the figure in %, leave out the unit.

Challenge: Using the record for "Cn1c(=S)c2[nH]c(SCCN3CCOCC3)nc2n(C)c1=O" , report its viability at 72 h, 25 µM.
Response given: 17

* * *

- System: MDA-MB-231 PARG-KD cells
- METHOD_SUMMARY: Sulforhodamine B (SRB) cytotoxicity assay
- Format: cell-based, human
- RUN_PARAMETERS: Homo sapiens, MDA-MB-231; growth inhibitory; 72 h
VALUE_KIND: IC50 (µM)
The reply should contain only the number, in µM.

Challenge: Notebook entry, MDA-MB-231 PARG-KD cells assay: IC50 of "Cn1c(=S)c2[nH]c(SCCN3CCOCC3)nc2n(C)c1=O" = ?
Response given: 34.4
